assayed.target: T1, Dahl R Dear S44P/M74T variant (rat Dual Endothelin-1/Angiotensin II Receptor) (rat (Dahl R/JRHsd), UniProt D3ZGZ6 1-127)
T1 construct: It was assayed as membranes of transfected Cos1 cells and as kidney membranes on blots; also called Dahl R receptor; Cos1-R
T1 chain: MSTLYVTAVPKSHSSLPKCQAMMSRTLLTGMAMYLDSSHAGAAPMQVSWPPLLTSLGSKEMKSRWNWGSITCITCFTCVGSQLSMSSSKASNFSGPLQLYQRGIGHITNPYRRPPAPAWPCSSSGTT
assay.protocol: saturation radioligand binding, Cos1 membranes; KH, high affinity binding site; the column head says nM but paragraph 132 gives this value in pM
Method: Binding of [¹²⁵I]Tyr⁴-angiotensin II and [¹²⁵I]Tyr¹³-endothelin-1 to COS-1 membranes was performed by a rapid filtration method (32, 50). […] The dissociation constant (Kd) and maximum ligand-binding sites (Bₘₐₓ) were determined using Hill plot analysis (55). Hill coefficient values (h) were calculated from the relationship ln [B/(Bₘₐₓ−B)]=h ln [free Radioligand]−ln Kd. […] Most results are expressed as the mean±SE (standard error) from three to five independent experiments.
pKd: −log10 of the molar value. No end group written: not given here. *: point of attachment. 125I = [125I]*
reported.metric: pKd

- CSCSSLMDKECVY(125I)FCHLDIIW (peptide, UniProt P05305 53-73, looked up, ends and bridges not checked, mature; Radiolabelled ligand; also called ET-1) [[125I]Tyr13-endothelin-1]: 10.92

Taken from patent US20140186344A1.
